# TARGET: P2X3 (UniProt P56373)
# PROTOCOL SUMMARY: P2X3 FLIPR intracellular calcium assay
# Assay type: cell-based
# CONDITION PARAMETERS: agonist at EC75, species (human or rat) not given
EXPERIMENTAL READOUT: IC50

>  <COMPOUND>
Cc1ccc(-c2cnc3c(-c4cnn(C)c4)cc(C(=O)N[C@@H](C)c4nnc[nH]4)cn23)s1 [Example 8]

>  <TARGET>
P2X3 (UniProt P56373)

>  <MEASUREMENT>
0.001 to 0.1 µM

$$$$
>  <COMPOUND>
CCC(=O)N(C)c1cc(C(=O)N[C@@H](C)c2nnc[nH]2)cn2c(-c3ccc(C)s3)cnc12 [Example 187]

>  <TARGET>
P2X3 (UniProt P56373)

>  <MEASUREMENT>
0.001 to 0.1 µM

$$$$
>  <COMPOUND>
COc1ccc(CNC(=O)c2cc(-n3nncc3C(F)F)c3ncc(-c4ccc(C)s4)n3c2)cn1 [Example 83]

>  <TARGET>
P2X3 (UniProt P56373)

>  <MEASUREMENT>
0.001 to 0.1 µM

$$$$
>  <COMPOUND>
CCc1nnnn1-c1cc(C(=O)NCc2ccc(C)nc2)cn2c(-c3ccc(C)s3)cnc12 [Example 153]

>  <TARGET>
P2X3 (UniProt P56373)

>  <MEASUREMENT>
> 10 µM

$$$$

Read the next record carefully.
IC50 in this record for CCc1nnnn1-c1cc(C(=O)NC(C)c2cnccn2)cn2c(-c3ccc(C)s3)cnc12 (centres unmarked) [Example 162] : 0.001 to 0.1 µM

* * *

# TARGET: P2X2/3 (Homo sapiens, UniProt P56373+Q9UBL9)
# PROTOCOL SUMMARY: P2X2/3 FLIPR intracellular calcium assay
# CONDITION PARAMETERS: agonist at EC75, species (human or rat) not given
pIC50: −log10 of the molar value.
EXPERIMENTAL READOUT: pIC50

Before answering, review these 4 worked examples.
>  <SMILES STR>
COC1CCN(c2cc(C(=O)N[C@@H](C)c3nnc[nH]3)cn3c(-c4ccc(C)s4)cnc23)CC1

>  <MEASUREMENT>
6.00 to 7.00

$$$$
>  <SMILES STR>
Cc1ncc(CNC(=O)c2cc(-n3nncc3C(F)F)c3ncc(-c4cnc(C)s4)n3c2)cn1

>  <MEASUREMENT>
6.00 to 7.00

$$$$
>  <SMILES STR>
COc1ccccc1Nc1cc(C(=O)N[C@@H](C)c2nnc[nH]2)cn2c(-c3ccc(C)s3)cnc12

>  <MEASUREMENT>
6.00 to 7.00

$$$$
>  <SMILES STR>
Cc1ncc(CNC(=O)c2cc(-n3nncc3CC(F)(F)F)c3ncc(-c4ccc(C)s4)n3c2)cn1

>  <MEASUREMENT>
7.00 to 9.00

$$$$

Go through the items and report each one's pIC50.
1. Cc1ccc(-c2cnc3c(-n4nncc4C(C)(C)C)cc(C(=O)N[C@@H](C)c4nnc[nH]4)cn23)s1
2. Cc1ncc(CNC(=O)c2cc(-n3nncc3C3CC3)c3ncc(-c4ccc(C)s4)n3c2)cn1
3. Cc1ncc(CNC(=O)c2cc(-n3nncc3C(C)(F)F)c3ncc(-c4ncc(C)s4)n3c2)cn1
4. C[C@H](NC(=O)c1cc(-n2nncc2C(F)F)c2ncc(-c3ccc(C#N)s3)n2c1)c1nnc[nH]1

1. 7.00 to 9.00
2. 7.00 to 9.00
3. 6.00 to 7.00
4. 5.00 to 6.00

* * *

# TARGET: P2X2/3 (Homo sapiens, UniProt P56373+Q9UBL9)
# PROTOCOL SUMMARY: P2X2/3 FLIPR intracellular calcium assay
# CONDITION PARAMETERS: agonist at EC75, species (human or rat) not given
pIC50: −log10 of the molar value.
EXPERIMENTAL READOUT: pIC50

Go through the items and report each one's pIC50.
1. Cc1ccc(-c2cnc3c(-n4nncc4C4CCC4)cc(C(=O)N[C@@H](C)c4nnc[nH]4)cn23)s1
2. COc1ncc(CNC(=O)c2cc(-n3nncc3C(F)(F)F)c3ncc(-c4ccc(C)s4)n3c2)cn1

["7.00 to 9.00", "7.00 to 9.00"]

* * *

# TARGET: P2X2/3 (Homo sapiens, UniProt P56373+Q9UBL9)
# Sequence (Q9UBL9 1-471): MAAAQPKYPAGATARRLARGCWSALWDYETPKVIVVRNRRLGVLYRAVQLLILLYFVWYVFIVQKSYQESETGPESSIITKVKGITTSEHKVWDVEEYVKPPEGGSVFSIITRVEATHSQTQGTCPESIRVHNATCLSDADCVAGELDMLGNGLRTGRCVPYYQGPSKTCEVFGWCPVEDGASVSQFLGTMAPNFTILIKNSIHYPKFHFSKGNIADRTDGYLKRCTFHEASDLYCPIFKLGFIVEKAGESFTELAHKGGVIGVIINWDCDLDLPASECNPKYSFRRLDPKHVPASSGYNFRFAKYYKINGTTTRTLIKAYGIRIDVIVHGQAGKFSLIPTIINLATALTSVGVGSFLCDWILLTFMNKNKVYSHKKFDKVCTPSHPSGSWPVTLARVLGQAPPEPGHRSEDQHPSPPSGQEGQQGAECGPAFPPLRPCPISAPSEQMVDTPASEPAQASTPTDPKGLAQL
# Sequence (P56373 1-397): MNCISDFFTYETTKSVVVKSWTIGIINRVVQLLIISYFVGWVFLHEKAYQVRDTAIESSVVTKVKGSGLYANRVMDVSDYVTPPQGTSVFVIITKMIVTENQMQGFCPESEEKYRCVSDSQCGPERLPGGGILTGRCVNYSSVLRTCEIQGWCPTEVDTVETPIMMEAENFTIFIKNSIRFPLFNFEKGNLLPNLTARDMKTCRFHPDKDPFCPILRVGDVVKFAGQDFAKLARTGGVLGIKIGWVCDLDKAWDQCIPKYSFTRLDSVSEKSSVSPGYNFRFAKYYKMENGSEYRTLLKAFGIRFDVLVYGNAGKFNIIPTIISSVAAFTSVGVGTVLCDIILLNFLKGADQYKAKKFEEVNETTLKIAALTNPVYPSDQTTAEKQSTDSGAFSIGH
# PROTOCOL SUMMARY: P2X2/3 FLIPR intracellular calcium assay
# CONDITION PARAMETERS: agonist at EC75, species (human or rat) not given
EXPERIMENTAL READOUT: IC50

Before answering, review these 2 worked examples.
>  <COMPOUND>
Cc1ccc(CNC(=O)c2cc(Nc3ccccc3)c3ncc(-c4ccc(C)s4)n3c2)cn1 [Example 91]

>  <IC50>
1 to 10 µM

$$$$
>  <COMPOUND>
Cc1ccc(-c2cnc3c(N4CCC(C)CC4)cc(C(=O)NCc4ccn(C)c(=O)c4)cn23)s1 [Example 128]

>  <IC50>
0.1 to 1 µM

$$$$

Go through the items and report each one's IC50.
1. Cc1noc([C@@H](C)NC(=O)c2cc(-n3nnnc3C(C)(F)F)c3ncc(-c4ccc(C)s4)n3c2)n1 [Example 186]
2. Cc1ccc(-c2cnc3c(N4CCC(C)(C)CC4)cc(C(=O)N[C@@H](C)c4nnc[nH]4)cn23)s1 [Example 129]
3. Cc1ncc(CNC(=O)c2cc(-n3nncc3CC(F)(F)F)c3ncc(-c4ncc(C)s4)n3c2)cn1 [Example 82]
4. COc1ncc(CNC(=O)c2cc(-n3nncc3C(F)(F)F)c3ncc(-c4ncc(C)s4)n3c2)cn1 [Example 86]
5. Cc1ccc(-c2cnc3c(NC4CCCCC4)cc(C(=O)N[C@@H](C)c4nnc[nH]4)cn23)s1 [Example 121]
6. Cc1ccc(-c2cnc3c(-n4nncc4C(F)(F)F)cc(C(=O)N[C@@H](C)c4nnc[nH]4)cn23)s1 [Example 26]

1: 0.001 to 0.1 µM; 2: 0.1 to 1 µM; 3: 0.1 to 1 µM; 4: 0.1 to 1 µM; 5: 0.1 to 1 µM; 6: 0.001 to 0.1 µM

IC50 in this record for Cc1ccc(-c2cnc3c(-n4nnnc4C(C)C)cc(C(=O)NC(C)c4cnccn4)cn23)s1 (stereo not drawn) [Example 159] : 1 to 10 µM

* * *

# TARGET: P2X2/3 (Homo sapiens, UniProt P56373+Q9UBL9)
# PROTOCOL SUMMARY: P2X2/3 FLIPR intracellular calcium assay
# CONDITION PARAMETERS: agonist at EC75, species (human or rat) not given
pIC50: −log10 of the molar value.
Provide the reported pIC50 of each item.

>  <SMILES STR>
Cc1csc(-c2cnc3c(N4CCC(F)(F)CC4)cc(C(=O)N[C@@H](C)c4nnc[nH]4)cn23)c1

>  <TARGET>
P2X2/3 (Homo sapiens, UniProt P56373+Q9UBL9)

>  <pIC50>
6.00 to 7.00

$$$$
>  <SMILES STR>
Cc1ccc(-c2cc(C(=O)N[C@@H](C)c3nnc[nH]3)cn3c(-c4ccc(C)s4)cnc23)s1

>  <TARGET>
P2X2/3 (Homo sapiens, UniProt P56373+Q9UBL9)

>  <pIC50>
7.00 to 9.00

$$$$
>  <SMILES STR>
Cc1ccc(-c2cnc3c(Nc4nccs4)cc(C(=O)N[C@@H](C)c4nnc[nH]4)cn23)s1

>  <TARGET>
P2X2/3 (Homo sapiens, UniProt P56373+Q9UBL9)

>  <pIC50>
5.00 to 6.00

$$$$

Go through the items and report each one's pIC50.
1. Cc1ncc(CNC(=O)c2cc(-n3nnnc3C(F)F)c3ncc(-c4ccc(C)o4)n3c2)cn1
2. Cc1ncc(CNC(=O)c2cc(-n3nncc3C3CCC3)c3ncc(-c4ccc(C)s4)n3c2)cn1

1: 6.00 to 7.00; 2: 7.00 to 9.00
